Molecular target: T1, PSMA Fab (biotinylated (site not stated))
T1 construct: Biotinylated PSMA Fab captured on neutravidin coated plates in the phage ELISA; also called anti-PSMA Fab; 006 PSMA Fab
Test: clonal phage ELISA on captured PSMA Fab pre-incubated with PSMA antigen as competitor, anti-M13-HRP detection;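 also: wells blocked with buffer plus PSMA antigen before phage addition, with blocking buffer alone as the no-competitor control, bound phage detected after washing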
Where no end group is shown, it is not given here.
Threshold check on Phage binding ELISA signal, Anti-PSMA Fab with PSMA antigen: at or above 0.07 gives yes, strictly below gives no.

>  <binder>
LEVHCRPSWMCVGF [Phage-3384]

>  <label-class>
no

$$$$
>  <binder>
AEVRCVPQWMCFGL [Phage-3380]

>  <label-class>
yes

$$$$
>  <binder>
IGAMCEPKWMCFGF (cysteine pairing not given here; also: fused to pIII of bacteriophage) [Phage-3389]

>  <label-class>
yes

$$$$
>  <binder>
MQMMCKPDWMCEGF [Phage-3388]

>  <label-class>
yes

$$$$
>  <binder>
QGTLCVPSWMCSGF [Phage-3390]

>  <label-class>
no

$$$$
>  <binder>
ILPQCVPSWMCEGF [Phage-3385]

>  <label-class>
yes

$$$$
>  <binder>
QVPMCKPMWMCAGF (cysteine pairing not given here; also: fused to pIII of bacteriophage) [Phage-3379]

>  <label-class>
yes

$$$$
>  <binder>
EMRYCVPRWMCEGF [Phage-3381]

>  <label-class>
yes

$$$$
>  <binder>
VEPLCRPFWMCVGF [Phage-3382]

>  <label-class>
yes

$$$$

Just for reference, patent US20260242478A1 is where these values come from.
